Biological target: T1, Anti-CD28 Fab (SEQ ID NOs: 696, 697)
T1 construct: In the phage ELISA the Fab was biotinylated and captured on neutravidin coated plates
T1 sequence (VH, as listed by the source, chain 1 of 2): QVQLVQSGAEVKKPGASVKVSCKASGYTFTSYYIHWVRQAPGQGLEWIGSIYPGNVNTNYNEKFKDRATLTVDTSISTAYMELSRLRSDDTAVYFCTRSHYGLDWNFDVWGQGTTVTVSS
T1 sequence (VL, as listed by the source, chain 2 of 2): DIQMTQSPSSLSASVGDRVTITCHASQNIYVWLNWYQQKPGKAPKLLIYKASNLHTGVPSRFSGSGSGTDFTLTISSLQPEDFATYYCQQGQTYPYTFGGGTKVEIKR
Assay: phage binding ELISA; biotinylated anti-CD28 Fab on neutravidin plate, bound phage detected with anti-M13 HRP
Where no end group is shown, it is not given here.
Quick list: Anti-CD28 Fab (SEQ ID NOs: 696, 697) signal per entry.
quantity: Anti-CD28 Fab (SEQ ID NOs: 696, 697) signal

binder: MCSAGATYPWPMCL (peptide, not shown: large carriers, Clonal phage of the Peptide-92 optimisation library, tested as crude phage supernatant) [Phage-1484]
test_result: 1.73
--
binder: WCAAVFSYSWPLCL (peptide, not shown: large carriers, cysteine pairing not given here; also: displayed as fusion to phage pIII, pIII and linker not given here, Clonal phage of the Peptide-92 optimisation library, tested as crude phage supernatant) [Phage-1479]
test_result: 1.75
--
binder: RCRAGFSYNWPYCM (peptide, not shown: large carriers, Clonal phage of the Peptide-92 optimisation library, tested as crude phage supernatant) [Phage-1488]
test_result: 1.72
--
binder: WCAAGATWPWPLCI (peptide, not shown: large carriers, Clonal phage of the Peptide-92 optimisation library, tested as crude phage supernatant) [Phage-1489]
test_result: 1.7
--
binder: TCAAGAAWPWPHCL (peptide, not shown: large carriers, cysteine pairing not given here; also: displayed as fusion to phage pIII, pIII and linker not given here, Clonal phage of the Peptide-92 optimisation library, tested as crude phage supernatant) [Phage-1482]
test_result: 1.73
